- assay: chemical genetic growth profiling, strain panel (AID 1159580);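 also: tested at 20 µM; growth read once vehicle control cultures reached saturation at 30 °C; 1 = growth at the plate median or of vehicle wells; lower values mean less growth of the strain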
- protocol conditions: S. cerevisiae deletion strains, growth OD, locus YDR195W, strain ref2
In all, about 5,500 compounds went through this assay and about 2,000 (36%) were called active. Roughly 18% stayed inconclusive and do not appear here. Rule as the data show it: active = normalized growth mostly below about 0.91 (no sharp cut-off); inconclusive = no clear call, values can overlap the other calls; inactive = mostly above about 0.92. Some of the results follow.
Permitted responses: 1 (yes) = active, 0 (no) = inactive

For orientation, consider the following solved cases.
COCC1=C(C(=O)OC(C)OC(=O)OC(C)C)N2C(=O)[C@@H](NC(=O)/C(=N\OC)c3csc(N)n3)[C@H]2SC1 (some centres not stated) : 0 (no)
CCC[C@@H]1C[C@@H](C(=O)N[C@H]([C@H]2O[C@H](SC)[C@H](O)[C@@H](O)[C@H]2O)[C@H](C)O)N(C)C1 : 0 (no)
CC(=O)Nc1c(I)cc(I)c(C(=O)O)c1I : 0 (no)
COc1ccccc1OCC(O)COC(N)=O (configuration not stated) : 0 (no)

Hey, what did the test say about O=C1C=C(O)c2ccccc2C1=O ? 0 (no)

How about this compound: C[C@H]1C(=O)CCC2[C@]3(C)CC[C@@]4(C)C5CC(C)(C)CC[C@]5(C)CC[C@]4(C)C3CC[C@@]21C (some centres not stated) 0 (no)

How about this compound: NC(Cc1ccc(Cl)cc1)C(=O)O (configuration not stated) 0 (no)

How about this compound: CC(=O)NC1C(O)OC(COS(=O)(=O)O)C(OC2OC(C(=O)O)C(OC3OC(CO)C(OC4OC(C(=O)O)C(O)C(O)C4OS(=O)(=O)O)C(OS(=O)(=O)O)C3NS(=O)(=O)O)C(O)C2OS(=O)(=O)O)C1O (configuration not stated) 0 (no)

How about this compound: CCCCN(CC)c1c([N+](=O)[O-])cc(C(F)(F)F)cc1[N+](=O)[O-] 0 (no)

How about this compound: CNC(C)[C@@H]1CC[C@@H](N)[C@@H](OC2[C@@H](N)C[C@@H](N)[C@H](OC3OC[C@](C)(O)[C@H](NC)[C@H]3O)[C@H]2O)O1 (some centres not stated) 0 (no)

How about this compound: CC1=C(C(=O)O)N2C(=O)[C@@H](NC(=O)[C@@H](N)c3ccc(O)cc3)[C@H]2SC1 0 (no)

How about this compound: CC(C)c1cc2c(c(O)c1O)[C@@]1(C(=O)O)CCCC(C)(C)C1CC2 (some centres not stated) 0 (no)

How about this compound: CCCc1ncc(C[n+]2ccccc2C)c(N)n1 0 (no)

How about this compound: O=C1C=CC(=O)c2c(O)cccc21 0 (no)

How about this compound: CNC(=O)N(C)c1nnc(C(C)(C)C)s1 0 (no)

How about this compound: Cc1cc(O)c2c(c1)C(=O)c1cccc(O)c1C2=O 1 (yes)

How about this compound: Cn1c(=O)c2c(ncn2CCO)n(C)c1=O 0 (no)

How about this compound: CCCC(=O)Nc1ccc(OCC(O)CNC(C)C)c(C(C)=O)c1 (configuration not stated) 0 (no)

How about this compound: CC(=O)O[C@@H]1C2CC[C@@H]3C1(C[C@@H](O)[C@@]1(O)[C@@H](C[C@H](O)C1(C)C)[C@]3(C)O)C[C@@]2(C)O (some centres not stated) 0 (no)

---

- assay: chemical genetic growth profiling, strain panel (AID 1159580);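 also: tested at 20 µM; growth read once vehicle control cultures reached saturation at 30 °C; 1 = growth at the plate median or of vehicle wells; lower values mean less growth of the strain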
- protocol conditions: S. cerevisiae deletion strains, growth OD, locus YGL240W, strain doc1
Hit rate of the full screen: of about 5,500 compounds, about 2,000 (36%) were called active. About 18% were inconclusive and are not listed. Cut-off read from the data, not from the text of the source: active = normalized growth mostly below about 0.91 (no sharp cut-off); inconclusive = no clear call, values can overlap the other calls; inactive = mostly above about 0.92. The list shows a part of the results.
Permitted responses: active, inactive

For orientation, consider the following solved cases.
NC(=NCCCCCCN=C(N)N=C(N)Nc1ccc(Cl)cc1)N=C(N)Nc1ccc(Cl)cc1 : active
Cn1c(=O)[nH]c2nc[nH]c2c1=O : inactive
CCC[C@@H]1C[C@@H](C(=O)N[C@H]([C@H]2O[C@H](SC)[C@H](O)[C@@H](O)[C@H]2O)[C@H](C)O)N(C)C1 : inactive
CC(=O)OC[C@@]1(O)C[C@@]23CCC4c5ccoc5CC[C@]4(C)C2CC[C@@H]1C3 (stereo not given in full) : inactive
CCCCCC/C=C\CCCCCCCc1cccc(O)c1C(=O)O : inactive
CC(=O)CCCCn1c(=O)c2c(ncn2C)n(C)c1=O : inactive

Hey, what did the test say about COc1cc(OC)c2c(OC)c(-c3ccc4c(c3)OCO4)c(=O)oc2c1 ? inactive

How about this compound: CC12CCC(O)CC1CCc1ccccc12 (stereo not given) inactive

How about this compound: O=C1NS(=O)(=O)c2ccccc21 inactive
